target: cystic fibrosis transmembrane conductance regulator (ΔR-CFTR) (Homo sapiens, UniProt P13569, DEL634-836); assay: excised inside-out patch-clamp
Sequence (P13569 1-633, stated change not applied): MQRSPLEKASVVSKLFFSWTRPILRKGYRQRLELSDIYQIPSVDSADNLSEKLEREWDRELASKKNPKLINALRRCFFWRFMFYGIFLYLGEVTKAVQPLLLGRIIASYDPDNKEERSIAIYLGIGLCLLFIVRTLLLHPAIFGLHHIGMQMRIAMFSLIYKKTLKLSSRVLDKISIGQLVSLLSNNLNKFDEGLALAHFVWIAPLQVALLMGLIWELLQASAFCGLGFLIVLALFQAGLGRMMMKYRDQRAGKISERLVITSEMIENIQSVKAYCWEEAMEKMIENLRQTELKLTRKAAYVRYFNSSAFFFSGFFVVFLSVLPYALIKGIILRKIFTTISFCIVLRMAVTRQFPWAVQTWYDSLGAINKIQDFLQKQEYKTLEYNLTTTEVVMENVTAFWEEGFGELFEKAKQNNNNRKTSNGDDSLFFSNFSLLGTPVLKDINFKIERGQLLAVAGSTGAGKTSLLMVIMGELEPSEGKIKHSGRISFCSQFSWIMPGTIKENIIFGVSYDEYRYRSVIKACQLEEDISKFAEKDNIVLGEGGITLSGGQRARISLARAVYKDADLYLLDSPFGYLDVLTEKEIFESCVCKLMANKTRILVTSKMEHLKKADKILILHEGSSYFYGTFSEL
Sequence (P13569 837-1480, stated change not applied): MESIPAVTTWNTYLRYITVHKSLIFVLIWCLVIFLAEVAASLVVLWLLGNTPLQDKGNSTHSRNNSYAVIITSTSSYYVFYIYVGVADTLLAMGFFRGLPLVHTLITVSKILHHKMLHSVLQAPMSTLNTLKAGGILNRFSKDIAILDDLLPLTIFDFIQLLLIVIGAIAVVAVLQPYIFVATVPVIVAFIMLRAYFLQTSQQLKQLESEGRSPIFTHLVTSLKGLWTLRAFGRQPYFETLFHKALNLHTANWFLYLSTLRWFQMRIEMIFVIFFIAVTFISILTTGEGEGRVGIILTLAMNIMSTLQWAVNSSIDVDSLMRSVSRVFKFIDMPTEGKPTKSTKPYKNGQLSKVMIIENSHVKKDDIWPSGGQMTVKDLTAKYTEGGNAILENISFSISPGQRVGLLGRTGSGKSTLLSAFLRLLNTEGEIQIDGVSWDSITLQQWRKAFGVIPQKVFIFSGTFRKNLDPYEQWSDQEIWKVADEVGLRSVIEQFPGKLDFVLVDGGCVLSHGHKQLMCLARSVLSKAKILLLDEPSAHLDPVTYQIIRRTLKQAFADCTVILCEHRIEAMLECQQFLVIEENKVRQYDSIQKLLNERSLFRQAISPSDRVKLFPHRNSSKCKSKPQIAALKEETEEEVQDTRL
observation.type: Ki
Param answer (str): number followed by unit.

Retrieve Ki measured for Nc1ncnc2c1ncn2[C@@H]1O[C@H](COP(=O)(O)OP(=O)(O)O)[C@@H](O)[C@H]1O and print it.
26.3 µM

Hello, the source for this data is paper PMC1382195, in case you need it.
